Measured EC50 by item
- test target: T1, human Trop-2 expressed on cell surface (human, UniProt P09758 27-323)
- T1 construct: whole, on cells; also called cell surface Trop-2
- T1 sequence (looked up): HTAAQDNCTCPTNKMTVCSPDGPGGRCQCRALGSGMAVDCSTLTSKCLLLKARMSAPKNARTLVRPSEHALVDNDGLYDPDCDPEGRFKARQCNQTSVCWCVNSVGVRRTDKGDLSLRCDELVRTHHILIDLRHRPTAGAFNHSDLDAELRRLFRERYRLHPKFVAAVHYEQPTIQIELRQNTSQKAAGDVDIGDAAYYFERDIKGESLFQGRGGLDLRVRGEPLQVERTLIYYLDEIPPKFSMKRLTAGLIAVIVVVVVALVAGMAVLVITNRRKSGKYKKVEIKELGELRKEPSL
- protocol details: flow cytometry, MDA-MB-231-GFP cells
API: value field is a number in pM; no unit string.

[[record]]
binder = "66A1 (antibody, V domains shown, Rabbit-derived clone; LEM construct: VH + rabbit IgG CH1 + human IgG1 CH2-CH3) VH: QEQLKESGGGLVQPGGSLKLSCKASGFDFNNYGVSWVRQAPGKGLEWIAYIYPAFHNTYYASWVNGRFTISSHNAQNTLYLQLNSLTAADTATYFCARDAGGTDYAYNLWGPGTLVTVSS VL: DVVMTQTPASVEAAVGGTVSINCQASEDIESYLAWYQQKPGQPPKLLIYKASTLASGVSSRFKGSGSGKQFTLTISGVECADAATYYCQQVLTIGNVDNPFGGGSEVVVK"
result_type = "EC50"
quantitative_result = 10

[[record]]
binder = "1D10 (antibody, V domains shown, Rabbit-derived clone; LEM construct: VH + rabbit IgG CH1 + human IgG1 CH2-CH3) VH: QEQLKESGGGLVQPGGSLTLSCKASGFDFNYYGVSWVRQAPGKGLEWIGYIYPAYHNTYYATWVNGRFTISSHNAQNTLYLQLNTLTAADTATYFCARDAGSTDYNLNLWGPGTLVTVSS VL: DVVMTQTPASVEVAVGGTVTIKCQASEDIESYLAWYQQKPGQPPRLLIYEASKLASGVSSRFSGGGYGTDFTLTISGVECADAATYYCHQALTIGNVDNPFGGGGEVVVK"
result_type = "EC50"
quantitative_result = 10


Proceeding to the next binder to report its EC50.
Find the measured EC50 of 9D7-2 (antibody, V domains shown) VH: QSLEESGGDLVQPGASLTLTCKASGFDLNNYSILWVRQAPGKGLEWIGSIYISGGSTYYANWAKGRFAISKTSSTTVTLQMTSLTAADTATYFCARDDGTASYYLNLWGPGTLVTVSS VL: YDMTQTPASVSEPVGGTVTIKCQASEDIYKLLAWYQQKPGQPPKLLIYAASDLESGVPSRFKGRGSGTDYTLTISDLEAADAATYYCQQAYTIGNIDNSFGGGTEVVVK and report it.
100
